- tested_target: SARS-CoV-2 prefusion-stabilized spike protein (SARS-CoV-2-PreS) (SARS-CoV-2, UniProt P0DTC2 14-1208)
- assay_info: ELISA
metric: EC50 (nM)
The answer is to be given in nM; state only the numeric part.

Recorded EC50, per entry:
q: Given 5G11 VHH-Fc (Fc fusion) QVQLVESGGGLVQAGGSLRLSCAASGRTFSIYAVGWFRQAPGKERDFVAGITWSGGTTYYSDSVKGRFTISRDNAKNTVYLQMNNLKPEDTAIYYCAVDTYSMTLSARSYDYWGQGTQVTVSS , state its recorded EC50.
a: 0.4

q: Given 9B2 VHH-Fc (Fc fusion) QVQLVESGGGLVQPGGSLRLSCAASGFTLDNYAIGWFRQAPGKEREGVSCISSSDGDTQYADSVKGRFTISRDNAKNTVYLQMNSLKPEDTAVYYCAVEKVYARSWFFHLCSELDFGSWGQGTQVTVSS , state its recorded EC50.
a: 0.1

q: Given 7A9 VHH-Fc (Fc fusion) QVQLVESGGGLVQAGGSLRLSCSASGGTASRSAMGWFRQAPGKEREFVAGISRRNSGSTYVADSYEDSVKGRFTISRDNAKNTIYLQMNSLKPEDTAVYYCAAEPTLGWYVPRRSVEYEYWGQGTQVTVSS , state its recorded EC50.
a: 0.16

Next binder, EC50 to be filled in.
q: Given 19E10 VHH-Fc (Fc fusion) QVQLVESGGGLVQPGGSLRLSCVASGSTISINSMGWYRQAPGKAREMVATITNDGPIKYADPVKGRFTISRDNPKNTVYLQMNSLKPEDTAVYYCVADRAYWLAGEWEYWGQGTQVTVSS , state its recorded EC50.
a: 0.03
